- Tested on: YST-1
- EXPERIMENT NOTES: relative IC50 (inflection point of fitted dose-response curve, CellTiter-Glo viability, 72 h; top asymptote may be below 50% inhibition); higher = less potent
// reported relative IC50 for each item listed
Give the number; µM is assumed, so skip it.

See these solved cases before continuing.
> print(dat)
                                   molecule  test.value
1  COc1cc(Nc2c(C#N)cnc3cc(OCCCN4CCN(C)CC4)c(OC)cc23)c(Cl)cc1Cl [Bosutinib]        2.59
2  COc1ccccc1S(=O)(=O)Nc1ccc2c(c1)CN(C)C(=O)N2 [PFI-1]        1.72

Fill blank: measured relative IC50 of the molecule Cc1c(CN2CCN(C(=O)[C@H](C)O)CC2)sc2c(N3CCOCC3)nc(-c3cnc(N)nc3)nc12 [Apitolisib] is ____.
0.167

Next up: Nc1nc(Nc2ccc3c(c2)CC[C@@H](N2CCCC2)CC3)nn1-c1cc2c(nn1)-c1ccccc1CCC2 [BGB324]
2.14

====

- System: HS-PSS
- EXPERIMENT NOTES: drug sensitivity score (DSS, CellTox-Green cytotoxicity, 72 h) (DSS (dimensionless)); higher = more cytotoxic; extreme values may be limits of the assay
The threshold is inclusive: drug sensitivity score of exactly 0.2 counts as Fulfilled; values below receive Not fulfilled.

Solved entries (count: 3):
MOLECULE	ANSWER LABEL
COc1cccc2c1C(=O)c1c(O)c3c(c(O)c1C2=O)C[C@@](O)(C(=O)CO)C[C@@H]3O[C@H]1C[C@H](N)[C@H](O)[C@H](C)O1 [Doxorubicin] (max concentration tested 1000 nM)	Fulfilled
C[C@H](Nc1ncnc2nc[nH]c12)c1cc2cccc(Cl)c2c(=O)n1-c1ccccc1 [Duvelisib] (max concentration tested 500 nM)	Fulfilled
COc1ccc(C2=N[C@@H](c3ccc(Cl)cc3)[C@@H](c3ccc(Cl)cc3)N2C(=O)N2CCNC(=O)C2)c(OC(C)C)c1 [Nutlin-3] (max concentration tested 10000 nM)	Not fulfilled

I'd appreciate it if you could say whether Cc1ccc(F)c(NC(=O)Nc2ccc(-c3cccc4[nH]nc(N)c34)cc2)c1 [Linifanib] (max concentration tested 1000 nM) has drug sensitivity score at least equal to 0.2.
Not fulfilled

Next up: COc1cccc2c1C(=O)c1c(O)c3c(c(O)c1C2=O)C[C@@](O)(/C(CO)=N/NC(=O)CCCCCN1C(=O)C=CC1=O)C[C@@H]3O[C@H]1C[C@H](N)[C@H](O)[C@H](C)O1 [Aldoxorubicin] (max concentration tested 1000 nM)
Fulfilled

Next up: O=C1CN2Cc3c(ccc(Cl)c3Cl)N=C2N1 [Anagrelide] (max concentration tested 10000 nM)
Not fulfilled

Next up: CN1CCN(c2cc(C(=O)Nc3ccc4c(c3)-c3c(c(C(N)=O)nn3-c3ccc(F)cc3)CC4)c(Cl)cn2)CC1 [PHA 408] (max concentration tested 10000 nM)
Fulfilled

Next up: CC(=O)c1cnc2ccc(-c3cc(Cl)c(O)c(Cl)c3)nc2c1N[C@H]1CC[C@H](CN(C)C)CC1 [OTSSP167] (max concentration tested 1000 nM)
Fulfilled

Next up: CCOC(=O)CCNc1cc(N2CCc3ccccc3CC2)nc(-c2ccccn2)n1 [GSK-J4] (max concentration tested 100000 nM)
Fulfilled

Next up: O=C(O)CSc1cc(NS(=O)(=O)c2ccc(Br)cc2)c2ccccc2c1O [UMI-77] (max concentration tested 100000 nM)
Fulfilled

Next up: CC(C)C[C@H](NC(=O)[C@H](CCc1ccccc1)NC(=O)CN1CCOCC1)C(=O)N[C@@H](Cc1ccccc1)C(=O)N[C@@H](CC(C)C)C(=O)[C@@]1(C)CO1 [Carfilzomib] (max concentration tested 1000 nM)
Fulfilled

Next up: COc1cc2ncnc(Nc3ccc(F)c(Cl)c3)c2cc1OCCCN1CCOCC1 [Gefitinib] (max concentration tested 10000 nM)
Not fulfilled

Next up: CC1(COc2ccc3c(c2)ncn3-c2ccc3cccc(N4CCC(N)CC4)c3n2)COC1 [Crenolanib] (max concentration tested 10000 nM)
Fulfilled

Next up: CC[C@@H]1C(=O)N(C)c2cnc(Nc3ccc(C(=O)NC4CCN(C)CC4)cc3OC)nc2N1C1CCCC1 [BI 2536] (max concentration tested 1000 nM)
Fulfilled

Next up: CCCNC(=O)Nc1ccc(Oc2ncnc3cc(OC)c(OC)cc23)cc1Cl [KRN-633] (max concentration tested 2500 nM)
Not fulfilled

Next up: Nc1cc(C(F)(F)F)c(-c2cc(N3CCOCC3)nc(N3CCOCC3)n2)cn1 [Buparlisib] (max concentration tested 10000 nM)
Not fulfilled

Next up: O=NN(CCCl)C(=O)NC1CCCCC1 [Lomustine] (max concentration tested 10000 nM)
Not fulfilled

Next up: CC(=O)NCC(=O)N1[C@@H]2CC[C@H]1c1ccc(Nc3ncc(C(F)(F)F)c(NC4CCC4)n3)cc12 (max concentration tested 10000 nM)
Fulfilled

# credit: the supplement of paper PMC5579334
